From: PubChem BioAssay AID2753

Biological target: ATP-sensitive inward rectifier potassium channel 1 (Homo sapiens) (UniProt P48048)
Sequence (P48048 whole entry, looked up): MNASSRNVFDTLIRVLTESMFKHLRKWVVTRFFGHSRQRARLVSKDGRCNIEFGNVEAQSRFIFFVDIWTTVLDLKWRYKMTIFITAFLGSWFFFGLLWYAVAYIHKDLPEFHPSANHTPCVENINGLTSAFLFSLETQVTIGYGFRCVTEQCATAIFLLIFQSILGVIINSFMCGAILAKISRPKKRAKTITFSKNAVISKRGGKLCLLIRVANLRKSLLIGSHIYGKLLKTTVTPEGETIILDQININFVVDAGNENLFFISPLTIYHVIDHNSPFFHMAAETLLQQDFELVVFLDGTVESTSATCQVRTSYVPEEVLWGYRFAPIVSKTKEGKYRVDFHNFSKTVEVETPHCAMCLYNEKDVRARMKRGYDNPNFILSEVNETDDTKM
pIC50: −log10 of the molar value.
Entry flag: 1 if pIC50 reaches 5; 0 if it does not.

| entrySmiles | classLabel |
| --- | --- |
| COc1cc(/C=C2\C(=N)N3N=CSC3=NC2=O)cc(Br)c1OC(=O)c1ccco1 | 1 |
| COc1cc(/C=C(\C#N)C(=O)Nc2ccccc2C(=O)O)cc(Cl)c1OC | 1 |
| O=C1N=C2SCCN2/C1=C\c1ccc(Cl)cc1 | 1 |
| CCOC(=O)C(=Cc1ccc(-n2cncn2)cc1)C(=O)OCC | 0 |
| COC(=O)c1cc([N+](=O)[O-])c(-n2cncn2)c([N+](=O)[O-])c1 | 1 |
